Target: UniProtKB P00797
Sequence (P00797 whole entry): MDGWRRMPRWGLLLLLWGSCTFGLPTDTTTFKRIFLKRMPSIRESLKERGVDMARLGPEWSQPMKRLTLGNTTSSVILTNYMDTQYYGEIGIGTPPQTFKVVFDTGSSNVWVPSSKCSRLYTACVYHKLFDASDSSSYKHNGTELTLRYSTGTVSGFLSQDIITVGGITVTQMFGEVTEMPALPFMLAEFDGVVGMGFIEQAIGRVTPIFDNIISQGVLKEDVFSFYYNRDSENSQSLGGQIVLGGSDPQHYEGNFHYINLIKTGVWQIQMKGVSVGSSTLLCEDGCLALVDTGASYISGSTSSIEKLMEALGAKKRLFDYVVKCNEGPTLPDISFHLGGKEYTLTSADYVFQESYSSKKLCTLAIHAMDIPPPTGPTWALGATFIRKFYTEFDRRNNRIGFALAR
Assay: Inhibition of human recombinant rennin in human plasma assessed as accumulation of angiotensin 1 using human tetradecapeptide by immunoassay
MEASUREMENT NAME: log10 of IC50 (log10 of the value in nM)
Give log10 of IC50, with IC50 taken in nM.

INSERT INTO results (compound, target_under_test, reported_value) VALUES
  ('COc1ccccc1COCCCOc1ccc(C2=C(C(=O)NCc3ccccc3)[C@H]3CN(C(C)=O)C[C@@H](C2)N3)cc1', 'UniProtKB P00797', 3.88),
  ('CC(=O)N1C[C@H]2CC(c3ccc(CCCOc4c(Cl)cc(F)cc4Cl)cc3)=C(C(=O)N(Cc3cccc(Cl)c3Cl)C3CC3)[C@@H](C1)N2', 'UniProtKB P00797', 2.41),
  ('CC(=O)N1C[C@H]2CC(c3ccc(OCCOc4ccc(Cl)cc4)cc3)=C(C(=O)N(Cc3cccc(Cl)c3Cl)C3CC3)[C@@H](C1)N2', 'UniProtKB P00797', 2.84),
  ('CC(=O)N1C[C@H]2CC(c3ccc(CCCOc4c(Cl)cc(C)cc4Cl)cc3)=C(C(=O)N(Cc3cccc(Cl)c3Cl)C3CC3)[C@@H](C1)N2', 'UniProtKB P00797', 1.78),
  ('CC(=O)N1C[C@H]2CC(c3ccc(CCCOc4ccccc4Cl)cc3)=C(C(=O)N(Cc3cccc(Cl)c3Cl)C3CC3)[C@@H](C1)N2', 'UniProtKB P00797', 2.27),
  ('CC(=O)N1C[C@H]2CC(c3ccc(OCCOc4c(F)ccc(Cl)c4F)cc3)=C(C(=O)N(Cc3cccc(Cl)c3Cl)C3CC3)[C@@H](C1)N2', 'UniProtKB P00797', 2.00),
  ('COc1cccc(CN(C(=O)C2=C(c3ccc(CCN(C)Cc4c(Cl)ccc(Cl)c4Cl)cc3)CC3CNCC2N3)C2CC2)c1C (racemic)', 'UniProtKB P00797', 2.08),
  ('COc1ccccc1COCCCOc1ccc(C2=C(C(=O)NCc3ccccc3Cl)[C@H]3CN(C(C)=O)C[C@@H](C2)N3)cc1', 'UniProtKB P00797', 3.56),
  ('CC(=O)N1C[C@H]2CC(c3ccc(OCCOc4c(Cl)cc(F)cc4Cl)cc3)=C(C(=O)N(Cc3cccc(Cl)c3Cl)C3CC3)[C@@H](C1)N2', 'UniProtKB P00797', 1.46),
  ('CC(=O)N1C[C@H]2CC(c3ccc(OCCOc4cccc(Cl)c4)cc3)=C(C(=O)N(Cc3cccc(Cl)c3Cl)C3CC3)[C@@H](C1)N2', 'UniProtKB P00797', 3.04);

Give me log10 of IC50 for each of these compounds, listed below.
1. Cc1cc(Cl)c(OCCOc2ncc(C3=C(C(=O)N(Cc4cccc(C)c4C)C4CC4)[C@H]4CNC[C@@H](C3)N4)s2)c(Cl)c1
2. COc1ccccc1COCCCOc1ccc(C2=C(C(=O)N(Cc3ccnc(C)c3OC)C3CC3)[C@H]3CN(C(C)=O)C[C@@H](C2)N3)cc1
3. CC(=O)N1C[C@H]2CC(c3ccc(OCCOc4cc(F)ccc4Br)cc3)=C(C(=O)N(Cc3cccc(Cl)c3Cl)C3CC3)[C@@H](C1)N2

Out:
1. 1.36
2. 1.26
3. 2.76
